Reported pKi values for the following compounds.
target: triton-extracted alpha-synuclein from PD Tissue (Homo sapiens, UniProt P37840); construct: tissue Analytic Biological Services Inc; host or cells: human PD temporal cortex grey matter, Triton X-100 insoluble pellet; assay: Alpha-synuclein tissue homogenate binding assay (Assay 1), displacement of [^3H]-1000; conditions: insoluble fraction of PD brain homogenate, [^3H]-1000 3.0 nM, Kd 0.90 nM; read-out: α-synuclein Tissue Ki (Assay 1)
Lab note — pKi values are minus log10 of concentrations in M.

compound | pKi
COC[C@H]1CN(c2ncc(C#Cc3ccc(-c4cnn(C)c4)nc3)cn2)CCN1c1ncc(OCCF)cn1 [Example 92] | 9.08
Nc1cnn(-c2ncc(C#Cc3cnc(N4CCN(c5ncncn5)[C@@H](COCCF)C4)nc3)cn2)c1 [Example 73] | 8.04
FCCOC[C@H]1CN(c2ncc(/C=C/c3ccc(-c4cnco4)nc3)cn2)CCN1c1ncncn1 [Example 41] | 9.10
Cn1cc(-c2ncc(C#Cc3cnc(N4CCN(c5ncncn5)[C@@H](COCCF)C4)nc3)cn2)cn1 [Example 44] | 9.24
COC[C@H]1CN(c2ccc(F)nc2)CCN1c1ncc(/C=C/c2ccc(-n3ccnc3)nc2)cn1 [Example 32] | 9.05
COC[C@H]1CN(c2ccccn2)CCN1c1ncc(/C=C/c2ccc(-n3cnnc3)nc2)cn1 [Example 5] | 8.80
COC[C@H]1CN(c2ncc(C#Cc3cnc(-c4cnn(CCF)c4)nc3)cn2)CCN1c1ncncn1 [Example 46] | 8.89

Attention now turns to another entry.
Specify reported pKi for the compound shown: COC[C@H]1CN(c2ncc(/C=C/c3ccc(-n4ccnc4)nc3)cn2)CCN1c1ncc(OCCF)cn1 [Example 35]
8.70

###

Reported Selectivity ratio (Assay 2/Assay 1) values for the following compounds.
biological target: triton-extracted alpha-synuclein from PD Tissue (Homo sapiens); construct: tissue Analytic Biological Services Inc; host or cells: human PD temporal cortex grey matter, Triton X-100 insoluble pellet; assay: Alpha-synuclein tissue homogenate binding assay (Assay 1), displacement of [^3H]-1000; conditions: Aβ Tissue Ki / α-synuclein Tissue Ki
Hey, just send me the number, nothing else.

smi | Selectivity ratio (Assay 2/Assay 1)
FCCOC[C@H]1CN(c2ncc(C#Cc3ccc(N4CCn5cnnc5C4)nc3)cn2)CCN1c1ncncn1 | 1312

Specify reported Selectivity ratio (Assay 2/Assay 1) for the compound shown: Cc1cn(-c2ccc(/C=C/c3cnc(N4CCN(c5ncccn5)[C@@H](COCCF)C4)nc3)cn2)cn1
2857

Specify reported Selectivity ratio (Assay 2/Assay 1) for the compound shown: COC[C@H]1CN(c2ncc(C#Cc3ccc(-n4ccnc4)nc3)cn2)CCN1c1cncc(F)n1
183

Specify reported Selectivity ratio (Assay 2/Assay 1) for the compound shown: COC[C@H]1CN(c2ncc(C)cn2)CCN1c1ncc(/C=C/c2ccc(-n3ccnc3)nc2)cn1
400

Specify reported Selectivity ratio (Assay 2/Assay 1) for the compound shown: COC[C@H]1CN(c2ncc(/C=C/c3ccc(-n4ccnc4)nc3)cn2)CCN1c1ncccn1
13333

Specify reported Selectivity ratio (Assay 2/Assay 1) for the compound shown: COCCOC[C@H]1CN(c2ncc(C#Cc3ccc(-n4ccnc4)nc3)c(F)n2)CCN1c1ncncn1
794

Specify reported Selectivity ratio (Assay 2/Assay 1) for the compound shown: COC[C@H]1CN(c2ncc(/C=C/c3ccc(-n4ccnc4)nc3)cn2)CCN1c1ncc(OCCF)cn1
2000

Specify reported Selectivity ratio (Assay 2/Assay 1) for the compound shown: COC[C@H]1CN(c2cc(F)ncn2)CCN1c1ncc(/C=C/c2ccc(-n3ccnc3)nc2)cn1
12000
